Target: GST-DYRK1B (Homo sapiens, UniProt Q9Y463)
Construct: purchased ThermoFisher
Sequence (Q9Y463 whole entry): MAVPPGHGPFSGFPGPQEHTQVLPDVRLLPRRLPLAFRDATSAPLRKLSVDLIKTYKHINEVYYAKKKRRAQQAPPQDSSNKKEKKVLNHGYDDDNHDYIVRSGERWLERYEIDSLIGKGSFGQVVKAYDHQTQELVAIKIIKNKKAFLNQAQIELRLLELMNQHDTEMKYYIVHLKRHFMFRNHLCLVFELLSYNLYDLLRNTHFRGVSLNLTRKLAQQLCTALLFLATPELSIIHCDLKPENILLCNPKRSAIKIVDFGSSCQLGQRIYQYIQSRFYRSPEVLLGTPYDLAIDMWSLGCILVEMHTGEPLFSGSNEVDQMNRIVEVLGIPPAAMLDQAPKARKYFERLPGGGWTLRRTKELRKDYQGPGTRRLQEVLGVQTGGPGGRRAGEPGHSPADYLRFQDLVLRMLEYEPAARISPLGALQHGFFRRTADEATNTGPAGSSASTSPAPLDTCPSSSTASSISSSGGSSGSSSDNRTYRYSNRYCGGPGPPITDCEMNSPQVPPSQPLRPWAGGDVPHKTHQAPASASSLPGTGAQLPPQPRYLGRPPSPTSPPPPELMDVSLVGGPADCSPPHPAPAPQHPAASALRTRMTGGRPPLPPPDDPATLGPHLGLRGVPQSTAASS
Assay: IC50 determination of DYRK1B inhibitors (ADP-Glo in vitro kinase assay with DYRKtide)
Type: biochemical
Details: average of n=3 independent experiments; ATP 100 μM; read-out: IC50 of DYRK1B kinase activity inhibition (ADP-Glo titration curve)
From the text: In a preferred embodiment, the compounds of the present invention show inhibition of DYRK1B and/or DYRK1A to a higher extent than expected by the skilled person. The inhibition may be expressed as IC50, i.e. the concentration necessary to inhibit activity to 50%. […] The IC50 value may be determined using methods such as those described in the examples. […]
result-type: IC50 (µM)

compound="Fc1ccccc1-n1cc(-c2ccnc(NC3CCOCC3)n2)cn1 [compound of formula 12]" result_unit=µM readout_number=2
compound="COc1ccccc1-n1cc(-c2ccnc(NCc3c(C)n[nH]c3C)n2)cn1 [compound of formula 19]" result_unit=µM readout_number=3
compound="CC(Cc1ccncc1)Nc1nccc(-c2cnn(-c3ccccc3F)c2)n1 (centres unmarked) [compound of formula 16]" result_unit=µM readout_number=2
compound="Fc1ccccc1-n1cc(-c2ccnc(NCc3ccncc3)n2)cn1 [compound of formula 10]" result_unit=µM readout_number=4
compound="CCNc1nccc(-c2cnn(-c3ccccc3F)c2)n1 [compound of formula 14]" result_unit=µM readout_number=3

* * *

Target: GST-DYRK1B (Homo sapiens, UniProt Q9Y463)
Construct: purchased ThermoFisher
Assay: IC50 determination of DYRK1B inhibitors (ADP-Glo in vitro kinase assay with DYRKtide)
Assay type: biochemical
Settings: IC50 values for selected examples; GST-DYRK1B 5 nM, DYRKtide 50 μM, ATP 100 μM; read-out: IC50
pIC50: −log10 of the molar value.
# pIC50 per record follows
result-type: pIC50

compound=Cc1cccnc1CNc1nccc(-c2cnn(-c3ccccc3F)c2)n1 result_type=pIC50 readout_number=5.45
compound="NCCCCCNc1nccc(-c2cnn(-c3ccc(F)cc3)c2)n1 [reference compound]" result_type=pIC50 readout_number=4.81
compound=NCCCCCNc1nccc(-c2cnn(-c3ccccc3F)c2)n1 result_type=pIC50 readout_number=5.40
compound=Fc1ccccc1-n1cc(-c2ccnc(NCC(F)F)n2)cn1 result_type=pIC50 readout_number=5.16
compound=COc1ccccc1-n1cc(-c2ccnc(NCc3cnc(C)cn3)n2)cn1 result_type=pIC50 readout_number=4.99
compound=OCCCCCNc1nccc(-c2cnn(-c3ccccc3F)c2)n1 result_type=pIC50 readout_number=5.70
